target: rGOα; experiment: GTPγS binding to rGOα to saturation; set-up: species or system rat; settings: at 20°
MEASURED ATTRIBUTE: Kd (nM)
Give bare numbers, in nM.

I'm curious: which Kd was measured for `Nc1nc2c(ncn2[C@@H]2O[C@H](COP(=O)(O)OP(=O)(O)OP(O)(O)=S)[C@@H](O)[C@H]2O)c(=O)[nH]1` tested on rGOα? 2.9

Reference for the values: patent US5519116A
